The measured values listed here are drawn from the supplement of paper PMC7877785.

- experimental.details: self-splicing fitness, log relative to wild type (ln ratio); higher = more splicing; Tetrahymena group I intron in knt gene, E. coli kanamycin selection, DiMSum; sequences stand for … in CUCUCU…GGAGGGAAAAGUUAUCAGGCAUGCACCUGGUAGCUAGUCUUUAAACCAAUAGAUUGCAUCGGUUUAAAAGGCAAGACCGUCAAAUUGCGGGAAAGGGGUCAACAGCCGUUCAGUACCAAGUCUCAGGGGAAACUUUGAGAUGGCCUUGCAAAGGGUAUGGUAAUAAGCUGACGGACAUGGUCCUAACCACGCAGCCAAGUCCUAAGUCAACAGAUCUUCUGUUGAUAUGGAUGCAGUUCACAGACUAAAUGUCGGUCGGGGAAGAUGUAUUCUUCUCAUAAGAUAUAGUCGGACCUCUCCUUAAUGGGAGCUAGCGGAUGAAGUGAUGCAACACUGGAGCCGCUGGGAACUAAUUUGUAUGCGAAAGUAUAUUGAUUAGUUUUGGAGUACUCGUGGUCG;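 note: selection with 25 µg/mL kanamycin versus none on LB agar overnight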
- experimental.context: 37 °C
endpoint: self-splicing fitness (ln)
The reply should be a number, written without any unit.

Examples from the recorded data:
# seq, self-splicing fitness (ln)
data = [
    ("AUCAAGCAAUAUUACGAAAA", -2.03),
    ("AGGUAGCAAUAUUACGCAAA", -1.37),
    ("UAAGAGCAAUAUUACGUAGG", -2.56),
    ("AGUGAGCAAUAUUACGAAGU", 0.907),
    ("CUUUAGCAAUAUUACGGAUG", 0.313),
    ("CCGGAGCAAUAUUACGGGUC", -2.77),
    ("AAGCAGCAAUAUUACGAGGC", -2.17),
    ("CAGAAGCAAUAUUACGGUUU", -2.83),
]

Bench note: what self-splicing fitness (ln) did "UCGUAGCAAUAUUACGCACU" show?
-2.16

Bench note: what self-splicing fitness (ln) did "UUGGAGCAAUAUUACGCUGG" show?
-0.962

Bench note: what self-splicing fitness (ln) did "GACAAGCAAUAUUACGAGGC" show?
-2.76

Bench note: what self-splicing fitness (ln) did "GAUUAGCAAUAUUACGGUAU" show?
-1.14

Bench note: what self-splicing fitness (ln) did "AAUUAGCAAUAUUACGAUCU" show?
0.704
